tested on: CD-1 male mice; assay: Footshock active avoidance training (FAAT) in T-maze, amnesia test in well-trained mice, post-training ICV injection; type: in vivo; settings: post-training ICV, 6.14 nmol of peptide per mouse (except dose-response curves), well-trained mice, retention tested one week later
Peptide text beside a SMILES is read from it.
MEASURED_ENDPOINT: amnestic effect on retention of FAAT

                                   compound  reported
0  NC(=O)CC[C@H](N)C(=O)N[C@@H](Cc1ccccc1)C(=O)N[C@@H](Cc1ccccc1)C(=O)NCC(=O)O [Gln Phe Phe Gly] (H-QFFG-OH)  amnestic
1  CC(C)[C@H](N)C(=O)N[C@@H](Cc1ccccc1)C(=O)N[C@H](C(=O)O)[C@@H](C)O [Val Phe Thr] (H-Val-Phe-Thr-OH)  amnestic
2  CC(C)[C@H](N)C(=O)N[C@@H](Cc1ccccc1)C(=O)N[C@@H](Cc1ccccc1)C(=O)O [Val Phe Phe] (H-Val-Phe-Phe-OH)  amnestic

Reference for the values: patent US5652334A
